Tested on: human colon carcinoma cell line HCT116
Assay: Caspase cascade activation in HCT116 cells
Format: cell-based
Settings: HCT-116, 48 h incubation, read-out: caspase potency EC50 HCT116
parameter_measured: EC50

| molecule | EC50 |
| --- | --- |
| Cc1ccc(-c2nn3c(-c4n[nH]c5c4CCC5)nnc3s2)cc1 [Entry M1] | 67 nM |
| COc1ccccc1-c1nnc2sc(-c3ccc4[nH]ncc4c3)nn12 [Entry 12] | 1170 nM |
| CCOc1ccc(-c2nn3c(-c4ccccc4C)nnc3s2)cc1 [P] | 5750 nM |
| COc1cc(-c2nnc3sc(-c4ccc5nc[nH]c5c4)nn23)cc(OC)c1OC [Entry 3] | > 10000 nM |
| COc1ccc(-c2nn3c(-c4ccccc4C)nnc3s2)cc1OC [E] | 5020 nM |

Prompt: Reported EC50, molecule COc1ccccc1-c1nnc2sc(-c3ccc(C)c([N+](=O)[O-])c3)nn12 [Entry 4] : ____
Completion: > 10000 nM

Prompt: Reported EC50, molecule COc1ccccc1-c1nnc2sc(-c3ccc([N+](=O)[O-])c(OC)c3)nn12 [Entry 10] : ____
Completion: > 10000 nM

Prompt: Reported EC50, molecule COc1ccccc1-c1nnc2sc(-c3ccc(C)c(N)c3)nn12 [Entry 5] : ____
Completion: 40 nM

Prompt: Reported EC50, molecule Clc1ccccc1-c1nnc2sc(-c3ccc4c(c3)OCCO4)nn12 [Q] : ____
Completion: 2670 nM

Prompt: Reported EC50, molecule COc1ccc(-c2nn3c(-c4ccccc4OC)nnc3s2)cc1OC [I] : ____
Completion: 523 nM

All values here come from patent US7732468B2.
